# Test system: Saccharomyces cerevisiae
# assay overview: protein stability index of tFT-peptide fusion (C-terminal peptide) (PSI (0-1 scale)); higher = more stable (slower turnover)
# experimental setup: genetic background: wild type; temperature: 30 C
The reader will find reported protein stability index values listed item by item below.
Give your answer as a number; write no unit.

[[record]]
residue_sequence = "QKENQYHPRRNQ [YML009W-B C-terminal 12 aa]"
data_value = 0.691


Suppose we examine the sequence LKKIATKFWGKH [TRK2 C-terminal 12 aa] ; what protein stability index value has been reported?
0.714

Do the same for TSAGSNIFSTGQ [BBP1 C-terminal 12 aa] please
0.752

Do the same for ELENEHVPWGKK [HNM1 C-terminal 12 aa] please
0.667

Do the same for LLTYFRKHVKDT [SCC2 C-terminal 12 aa] please
0.572

Do the same for QRELKKVDGTPI [RCI50 C-terminal 12 aa] please
0.741

Do the same for FDALMNNDGDSD [TIF4632 C-terminal 12 aa] please
0.67

----------
The reader will find reported protein stability index values listed item by item below.
# Test system: Saccharomyces cerevisiae
# assay overview: protein stability index of tFT-peptide fusion (C-terminal peptide) (PSI (0-1 scale)); higher = more stable (slower turnover)
# experimental setup: genetic background: wild type; temperature: 30 C
Give your answer as a number; write no unit.

Would you please look over these solved cases?
[[record]]
residue_sequence = "CWNVLVPFDEVI"
measurement_type = "protein stability index"
data_value = 0.6

[[record]]
residue_sequence = "GESSLSTGAQHK"
measurement_type = "protein stability index"
data_value = 0.67

[[record]]
residue_sequence = "LFLLYVLVSLFV"
measurement_type = "protein stability index"
data_value = 0.281

[[record]]
residue_sequence = "NVLVRFFSSGVW"
measurement_type = "protein stability index"
data_value = 0.85

[[record]]
residue_sequence = "LPSPPRHPSAPR"
measurement_type = "protein stability index"
data_value = 0.683

[[record]]
residue_sequence = "SIPVWTIELFAT"
measurement_type = "protein stability index"
data_value = 0.469


Suppose we examine the sequence `GVAWGSGVGMMW` ; what protein stability index value has been reported?
0.718

Do the same for `AGGPRVRGAAGR` please
0.698

Do the same for `RSLLLINRPTPP` please
0.714

Do the same for `RCYSFTKIRNNL` please
0.718

Do the same for `VFLCFSWHFFLF` please
0.405

----------
The reader will find reported protein stability index values listed item by item below.
# System: Saccharomyces cerevisiae
# assay overview: protein stability index of tFT-peptide fusion (C-terminal peptide) (PSI (0-1 scale)); higher = more stable (slower turnover)
# experimental setup: genetic background: wild type; temperature: 30 C
Give your answer as a number; write no unit.

Would you please look over these solved cases?
[[record]]
residue_sequence = "LPAFHFHSPPTP"
measurement_type = "protein stability index"
data_value = 0.688

[[record]]
residue_sequence = "QKNETNQWKGKK"
measurement_type = "protein stability index"
data_value = 0.672

[[record]]
residue_sequence = "SFADFVFMDHCA"
measurement_type = "protein stability index"
data_value = 0.696


Suppose we examine the sequence `VTAIVLSVLSGC` ; what protein stability index value has been reported?
0.556

Do the same for `NILTIYRTMKSR` please
0.686

Do the same for `GISASYTASSSG` please
0.642
